tested on: sugar beet; assay: Test B pre/postemergence sugar beet; type: in vivo, Beta vulgaris; conditions: Rate 62 g/ha, Postemergence; scale of 0 to 10 where 0 is no effect and 10 is complete control
Measurement Kind: Sugarbeets plant response rating

[
  {
    "Compound": "CC1CCCCC1n1c(=O)on(C(=O)N(c2ccc(F)cc2F)C(C)C)c1=O (stereo not drawn)",
    "Tested Target": "sugar beet",
    "Measurement Kind": "Sugarbeets plant response rating",
    "Reading": 0
  },
  {
    "Compound": "CC(C)Cn1c(=O)on(C(=O)N(c2ccc(F)cc2)C(C)C)c1=O",
    "Tested Target": "sugar beet",
    "Measurement Kind": "Sugarbeets plant response rating",
    "Reading": 0
  },
  {
    "Compound": "CCC(CC)N(C(=O)n1oc(=O)n(-c2ccccc2C)c1=O)c1ccc(F)cc1",
    "Tested Target": "sugar beet",
    "Measurement Kind": "Sugarbeets plant response rating",
    "Reading": 0
  }
]
